- target under test: CCR8-NT.MBP (CCR8 N-terminus peptide aa 1-35 fused with maltose binding protein)
- assay details: ForteBio Octet, antibody captured on AHC biosensors, CCR8-NT.MBP as analyte
endpoint label: Octet Response (nm)
Give bare numbers, in nm.

QUERY: Returns the measured Octet Response (nm) for the input binder. Input: 7B16-H3C2.001 (CDR H3 combo mutant of 7-B16) (antibody, V domains shown) VH: EVQLVESGGGLVQPKGSLKLSCAASGFTFNTYAMNWVRQAPGKGLEWVARIRSKSNNYATYYADSVKDRFTISRDDSQSMLYLQMNNLKTEDTAMYYCARGLLRYRFFDAWGAGTTVTVSS VL: DIVMTQAEPSVPVTPGESISISCRSSKSLLHSNGNTYLYWFLQRPGQSPQLLIYRMSNLASGVPDRFSGSGSGTAFTLRISRVEAEDVGVYYCMQHLEYPFTFGGGTKLEIKR
RESULT: 0.357

QUERY: // returns reported Octet Response (nm) for input 7B16-L2.001 (CDR L2 swapped mutant of 7-B16) (antibody, V domains shown, also called CDR swapped variant L2) VH: EVQLVESGGGLVQPKGSLKLSCAASGFTFNTYAMNWVRQAPGKGLEWVARIRSKSNNYATYYADSVKDRFTISRDDSQSMLYLQMNNLKTEDTAMYYCVRGLLRYRFFDVWGAGTTVTVSS VL: DIVMTQAEPSVPVTPGESISISCRSSKSLLHSNGNTYLYWFLQRPGQSPQLLIYLGSNRASGVPDRFSGSGSGTAFTLRISRVEAEDVGVYYCMQHLEYPFTFGGGTKLEIKR
RESULT: 0.205

Others:
QUERY: What does the record list as Octet Response (nm) for 7B16-L1.001 (CDR L1 swapped mutant of 7-B16) (antibody, V domains shown, also called CDR swapped variant L1) VH: EVQLVESGGGLVQPKGSLKLSCAASGFTFNTYAMNWVRQAPGKGLEWVARIRSKSNNYATYYADSVKDRFTISRDDSQSMLYLQMNNLKTEDTAMYYCVRGLLRYRFFDVWGAGTTVTVSS VL: DIVMTQAEPSVPVTPGESISISCRSSQSLLHSNGYNYLDWFLQRPGQSPQLLIYRMSNLASGVPDRFSGSGSGTAFTLRISRVEAEDVGVYYCMQHLEYPFTFGGGTKLEIKR ?
RESULT: 0.0039
